Measured pIC50 (human DHFR (Homo sapiens, UniProt P00374))
pIC50: −log10 of the molar value.

Look over these answered cases.
[[record]]
molecule = "COc1cc(Cc2cnc(N)nc2N)cc(/C=C/C(=O)N2N=Cc3ccccc3C2C2CCCC2)c1OC (stereo not drawn)"
experimental_value = "< 4.68"

[[record]]
molecule = "COc1cc(Cc2cnc(N)nc2N)cc(/C=C/C(=O)N2N=Cc3ccccc3C2c2ccccc2)c1OCCN1CCOCC1 (stereo not drawn)"
experimental_value = "< 4.80"


Next molecule, pIC50 to be filled in.
Fill blank: measured pIC50 of the molecule CCCC1c2ccccc2C=NN1C(=O)/C=C/c1cc(Cc2cnc(N)nc2N)cc(OC)c1OC (stereo not drawn) is ____.
3.96
